Items are presented alongside their recorded log10(fluorescence lifetime).
- METHOD_SUMMARY: solvent given as SMILES
- CONDITION_SUMMARY: in C1CCOC1
Remember, log10 of fluorescence lifetime, in ns.

The examples below pair each entry with its known result.
COMPOUND_STRING	log10(fluorescence lifetime)
N#Cc1cccc2cc[nH]c12	0.84
N#C/C=C/c1ccc2ccc3cccc4ccc1c2c34	0.51
c1ccc(/C(=C(\c2ccccc2)c2cc(-c3ccccc3)ccc2-c2ccccc2)c2cc(-c3ccccc3)ccc2-c2ccccc2)cc1	0.81
O=C1C(=c2c(=O)c3c4ccccc4cc4cc5ccccc5c2c43)C(=O)c2ccccc21	1.03
c1ccc(-c2nn(-c3ccccc3)c3nc4ccc(N(c5ccccc5)c5cccc6ccccc56)cc4cc23)cc1	1.19

# input I have this compound here, N#Cc1ccc2cc[nH]c2c1 , and I need its recorded log10(fluorescence lifetime).
# output 0.57

# input I have this compound here, Cc1ccc(-c2ccc(-c3ccc(-c4ccc(C)cc4)cc3/C(=C(/c3ccccc3)c3cc(-c4ccc(C)cc4)ccc3-c3ccc(-c4ccc(C)cc4)cc3)c3ccccc3)cc2)cc1 , and I need its recorded log10(fluorescence lifetime).
# output 0.93

# input I have this compound here, Cc1sc(-c2ccc(-c3nc(-c4ccccc4)c(-c4ccccc4)[nH]3)cc2)c(C)c1C1=C(c2c(C)n(C)c3ccccc23)C(F)(F)C(F)(F)C1(F)F , and I need its recorded log10(fluorescence lifetime).
# output -0.32

# input I have this compound here, N#Cc1ccc(C[C@H](N)C(=O)O)cc1 , and I need its recorded log10(fluorescence lifetime).
# output 0.56

* * *

Items are presented alongside their recorded fluorescence lifetime.
- METHOD_SUMMARY: solvent given as SMILES
- CONDITION_SUMMARY: in ClCCl
Your answer is read as ns, so omit the unit and give the number.

The examples below pair each entry with its known result.
MOLECULE	READOUT_UNIT	fluorescence lifetime
c1ccc2c(-c3ccc4sc5ccccc5c4c3)c3ccccc3cc2c1	ns	5
CCCCn1c(-c2ccc(-c3nnc(-c4ccccc4)o3)cc2)nc(-c2ccccc2)c1-c1ccccc1	ns	1.76
c1ccc([B-]23NC(C4CCCCC4)=Nc4cccc([n+]42)N=C(C2CCCCC2)N3)cc1	ns	4.6
COC(=O)C(Cc1ccc2oc(-c3ccc4c(c3)c3ccccc3n4-c3ccccc3)nc2c1)NC(=O)OC(C)(C)C (stereo not drawn)	ns	1.5
CCOC(=O)c1ccc(C2CC(c3cccc4ccccc34)=NN2c2ccc(C)cc2)cc1 (stereo not drawn)	ns	4.56
COc1cc2cc(OC)c(C#Cc3ccc([N+](=O)[O-])cc3)cc2cc1C#Cc1ccc([N+](=O)[O-])cc1	ns	0.38

# input I have this molecule here, CCCCC(CC)Cn1c2cc(C#N)ccc2c2cc(-c3ccc(N(c4ccccc4)c4ccccc4)cc3)c(C#N)cc21 (stereo not drawn) , and I need its recorded fluorescence lifetime.
# output 7.59

# input I have this molecule here, Cc1ccc(C2=[N+]3C(=Cc4ccc(C)n4[B-]3(F)F)c3ccccc32)[nH]1 , and I need its recorded fluorescence lifetime.
# output 8.11

# input I have this molecule here, CCN(CC)c1ccc2cc(C#N)c(=N)oc2c1 , and I need its recorded fluorescence lifetime.
# output 2.9

# input I have this molecule here, CCCCC(CC)COc1ccc2nc(-c3ccc(-c4ccc(N(C)C)cc4)s3)sc2c1 (stereo not drawn) , and I need its recorded fluorescence lifetime.
# output 2.28

# input I have this molecule here, CCCCCCOc1cc(C=C2C(=O)c3ccccc3C2=O)c(OCCCCCC)cc1C=C1C(=O)c2ccccc2C1=O , and I need its recorded fluorescence lifetime.
# output 5.4

# input I have this molecule here, CC[B-]1(CC)c2cccc3c4c5c(cccc5c(c23)-c2cccc(C)[n+]21)[B-](CC)(CC)[n+]1c(C)cccc1-4 , and I need its recorded fluorescence lifetime.
# output 11.1

# input I have this molecule here, COc1ccc(-c2c3ccccc3c(-c3ccc(OC)cc3)c3cc4ccccc4cc23)cc1 , and I need its recorded fluorescence lifetime.
# output 12.1

# input I have this molecule here, COc1ccc2cc(/C=C/C3=C4CCc5ccccc5C4=[O+][B-](F)(F)O3)ccc2c1 , and I need its recorded fluorescence lifetime.
# output 1.6

# input I have this molecule here, Brc1cc(/C=C/c2ccc(N(c3ccccc3)c3ccccc3)cc2)c(Br)cc1/C=C/c1ccc(N(c2ccccc2)c2ccccc2)cc1 , and I need its recorded fluorescence lifetime.
# output 0.89

# input I have this molecule here, COc1ccc(C#Cc2c3ccccc3c(C#Cc3ccc(OC)cc3)c3cc4ccccc4cc23)cc1 , and I need its recorded fluorescence lifetime.
# output 7

# input I have this molecule here, CC(C)(C)NC(=O)c1cc2ccccc2c2ccc3c4ccccc4c4ccccc4c3c12 , and I need its recorded fluorescence lifetime.
# output 3.28

# input I have this molecule here, COC(=O)C(Cc1ccc2oc(-c3ccc(Nc4ccccc4)cc3)nc2c1)NC(=O)OC(C)(C)C (stereo not drawn) , and I need its recorded fluorescence lifetime.
# output 3.1
